pEC50 for assorted molecules
- TARGET_SYSTEM: human CaSR (Homo sapiens, UniProt P41180, E1011Q)
- Sequence (P41180 20-1078 E1011Q): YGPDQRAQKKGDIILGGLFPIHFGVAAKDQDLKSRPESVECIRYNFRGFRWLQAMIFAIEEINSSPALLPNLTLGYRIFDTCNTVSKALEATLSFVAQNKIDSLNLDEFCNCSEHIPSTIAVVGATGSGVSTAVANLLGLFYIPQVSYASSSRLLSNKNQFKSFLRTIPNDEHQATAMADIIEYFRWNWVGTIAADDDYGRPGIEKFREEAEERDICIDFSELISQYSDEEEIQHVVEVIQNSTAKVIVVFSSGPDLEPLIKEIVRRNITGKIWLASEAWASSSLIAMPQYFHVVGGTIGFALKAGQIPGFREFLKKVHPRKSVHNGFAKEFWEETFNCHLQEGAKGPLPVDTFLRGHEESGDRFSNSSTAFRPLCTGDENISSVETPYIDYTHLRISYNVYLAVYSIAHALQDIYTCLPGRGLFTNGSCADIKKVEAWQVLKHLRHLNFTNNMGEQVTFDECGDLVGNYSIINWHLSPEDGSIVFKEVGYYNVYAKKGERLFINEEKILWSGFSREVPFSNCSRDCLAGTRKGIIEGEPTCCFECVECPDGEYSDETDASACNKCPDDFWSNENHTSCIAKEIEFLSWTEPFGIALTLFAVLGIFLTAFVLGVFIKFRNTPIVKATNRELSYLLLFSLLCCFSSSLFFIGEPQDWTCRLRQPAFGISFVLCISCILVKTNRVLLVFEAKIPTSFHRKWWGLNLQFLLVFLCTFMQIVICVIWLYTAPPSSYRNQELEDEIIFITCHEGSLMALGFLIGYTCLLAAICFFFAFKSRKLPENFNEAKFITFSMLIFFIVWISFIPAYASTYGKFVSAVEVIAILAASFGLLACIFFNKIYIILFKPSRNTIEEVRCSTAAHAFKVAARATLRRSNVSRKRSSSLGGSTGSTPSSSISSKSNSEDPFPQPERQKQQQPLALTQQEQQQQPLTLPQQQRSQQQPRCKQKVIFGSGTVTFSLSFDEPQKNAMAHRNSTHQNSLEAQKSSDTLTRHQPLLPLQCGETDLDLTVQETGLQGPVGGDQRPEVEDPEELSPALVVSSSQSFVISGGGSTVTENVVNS
- ASSAY_EXPLANATION: Evaluation of CaSR agonistic activity (293E cells transfected with hCaSR, Ca2+ fluorescent indicator, FLIPR)
- PARTICULARS: 293E cells expressing human CaSR; concentration giving activation rate 50%
pEC50 field: float, defined as -log10 of concentration (mol/L).

| MOLECULE | pEC50 |
| --- | --- |
| Cc1c(NC(=O)CC[C@H](N)C(=O)O)cccc1C(=O)O [Compound No. 31] | 5.43 |
| N[C@@H](CCC(=O)Nc1ccc(O)c(C(=O)O)c1)C(=O)O [Compound No. 28] | 6.48 |
| Cc1c(Cl)cc(S(=O)(=O)O)cc1NC(=O)CC[C@H](N)C(=O)O [Compound No. 22] | 8.85 |
| N[C@@H](CCC(=O)Nc1cccc(C(=O)O)c1)C(=O)O [Compound No. 14, 3-(L-γ-glutamylamino)benzoic acid] | 5.70 |
| COc1c(NC(=O)CC[C@H](N)C(=O)O)cccc1C(=O)O [Compound No. 27] | 6.82 |

Now for another entry.
Entry Cc1ccc(NC(=O)CC[C@H](N)C(=O)O)cc1S(=O)(=O)O [Compound No. 5, N^5-(4-methyl-3-sulfophenyl)-L-glutamine] ; pEC50 = 6.89
